target: UniProt P07333; test: KINOMEscan competition binding assay for CSF1R; set-up: DNA tag for qPCR (not a peptide); host or cells: E. coli/T7 phage or HEK-293; conditions: @ 0.1 uM; read-out: CSF1R kinase binding activity, Percent (%) inhibition
measured-attribute: inhibition at 0.1 µM

Field: example entries. Status: answers known.
molecule=COc1cc2nccc(Oc3ccc(NC(=O)c4nn(C5CC5)cc4OCCC(F)(F)F)nc3)c2cc1OC measured_attribute="inhibition at 0.1 µM" measured=90%
molecule=COc1cc2nccc(Oc3ccc(NC(=O)c4nn(C5CC5)cc4OCC(F)F)nn3)c2cc1OC measured_attribute="inhibition at 0.1 µM" measured=91%
molecule="COc1cc2nccc(Oc3ccc(NC(=O)c4nn(C5CCN(C)C5)cc4OCC(F)(F)F)c(F)c3)c2cc1OC (centres unmarked)" measured_attribute="inhibition at 0.1 µM" measured=65%
molecule=COc1cc2nccc(Oc3ccc(NC(=O)c4nn(C5CC5)cc4NCC(F)(F)F)nc3)c2cc1OC measured_attribute="inhibition at 0.1 µM" measured=94%
molecule="COc1cc2nccc(Oc3ccc(NC(=O)c4nn(C5CCN(C)C5)cc4OCC(F)(F)F)cn3)c2cc1OC (centres unmarked)" measured_attribute="inhibition at 0.1 µM" measured=9%
molecule=COc1cc2nccc(Oc3ccc(NC(=O)c4nn(C)cc4OCC(F)(F)F)nn3)c2cc1OC measured_attribute="inhibition at 0.1 µM" measured=87%
molecule=COc1cc2nccc(Oc3ccc(NC(=O)c4nn(CCC(F)(F)F)cc4OCC4CCC4)nc3)c2cc1OC measured_attribute="inhibition at 0.1 µM" measured=84%
molecule=CCCn1cc(OCC2CNC2)c(C(=O)Nc2ccc(Oc3ccnc4cc(OC)c(OC)cc34)cn2)n1 measured_attribute="inhibition at 0.1 µM" measured=64%
molecule=COc1cc2nccc(Oc3ccc(NC(=O)c4nn(CCOC5CC5)cc4OCC(F)(F)F)cn3)c2cc1OC measured_attribute="inhibition at 0.1 µM" measured=41%
molecule=COCCn1cc(OCC(F)(F)F)c(C(=O)Nc2ccc(Oc3ccnc4cc(OC)c(OC)cc34)cc2)n1 measured_attribute="inhibition at 0.1 µM" measured=76%

# value of inhibition at 0.1 µM, UniProt P07333, item `CNCCn1cc(OCC(F)(F)F)c(C(=O)Nc2ccc(Oc3ccnc4cc(OC)c(OC)cc34)cc2)n1` = 9%

====

IC50 by entry:
Molecular target: Axl (Homo sapiens)
Sequence (P30530 26-894): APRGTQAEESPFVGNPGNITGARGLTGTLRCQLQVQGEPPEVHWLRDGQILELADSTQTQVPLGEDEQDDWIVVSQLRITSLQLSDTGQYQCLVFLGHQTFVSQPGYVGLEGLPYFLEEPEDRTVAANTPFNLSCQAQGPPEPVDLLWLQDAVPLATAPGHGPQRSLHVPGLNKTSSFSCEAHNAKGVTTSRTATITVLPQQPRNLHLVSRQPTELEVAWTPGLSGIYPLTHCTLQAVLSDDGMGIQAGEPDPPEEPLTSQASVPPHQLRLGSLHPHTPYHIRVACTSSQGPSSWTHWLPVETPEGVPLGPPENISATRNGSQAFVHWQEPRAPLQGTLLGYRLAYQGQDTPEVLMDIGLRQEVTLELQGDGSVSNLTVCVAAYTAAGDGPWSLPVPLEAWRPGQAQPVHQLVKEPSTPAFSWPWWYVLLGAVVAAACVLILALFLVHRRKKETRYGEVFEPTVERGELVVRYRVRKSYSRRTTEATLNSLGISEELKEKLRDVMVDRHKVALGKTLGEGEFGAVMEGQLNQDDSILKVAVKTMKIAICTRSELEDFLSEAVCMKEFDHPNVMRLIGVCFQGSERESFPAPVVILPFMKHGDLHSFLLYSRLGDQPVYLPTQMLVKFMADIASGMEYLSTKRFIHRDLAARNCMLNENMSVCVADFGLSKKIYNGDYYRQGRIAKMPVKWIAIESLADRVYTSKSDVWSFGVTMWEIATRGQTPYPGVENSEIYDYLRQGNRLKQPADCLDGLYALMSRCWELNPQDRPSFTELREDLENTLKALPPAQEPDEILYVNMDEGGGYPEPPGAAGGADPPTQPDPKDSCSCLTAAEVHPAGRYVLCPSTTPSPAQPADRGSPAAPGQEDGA
Assay: Cellular Axl inhibition ELISA (p-Axl, Gas6-induced) using H1299 cells
Type: cell-based
Design: especially H1299 cell endogenously expresses Axl; endogenous in cells; host or cells: H1299
Settings: read-out: Cellular Axl activity by H1299 Elisa (IC50)

compound="COc1cc2nccc(Oc3ccc(NC(=O)c4nn(CC(C)O)cc4OCCF)nc3)c2cc1OC (stereo not shown)" test_target="Axl (Homo sapiens)" measured="0.5 to 1 µM"
compound="COc1cc2nccc(Oc3ccc(NC(=O)c4nn(CC5CCNC5)cc4OCC(F)(F)F)nc3)c2cc1OC (stereo not shown)" test_target="Axl (Homo sapiens)" measured="≥ 1 µM"
compound=COc1cc2nccc(Oc3ccc(NC(=O)c4nn(CCCN)cc4OCC(F)(F)F)nc3)c2cc1OC test_target="Axl (Homo sapiens)" measured="< 0.5 µM"
compound=COCCn1cc(OCC(F)(F)F)c(C(=O)Nc2ccc(Oc3ccnc4cc(OC)c(OC)cc34)nc2)n1 test_target="Axl (Homo sapiens)" measured="0.5 to 1 µM"
compound="COc1cc2nccc(Oc3ccc(NC(=O)c4nn(CC(C)O)cc4OCC(F)(F)F)c(F)c3)c2cc1OC (stereo not shown)" test_target="Axl (Homo sapiens)" measured="< 0.5 µM"
compound="COc1cc2nccc(Oc3ccc(NC(=O)c4nn(C5CCOC5)cc4OCC(F)(F)F)c(F)c3)c2cc1OC (stereo not shown)" test_target="Axl (Homo sapiens)" measured="< 0.5 µM"

Here is another compound to look at.
// field: IC50; key: COc1cc2nccc(Oc3ccc(NC(=O)c4nn(C5CCOC5)cc4OCC(F)(F)F)cc3)c2cc1OC (stereo not shown) ; value = < 0.5 µM

====

molecular target: CSF1R (Homo sapiens, UniProt P07333); assay: KINOMEscan competition binding assay for CSF1R; parameters: DNA tag for qPCR (not a peptide); host or cells: E. coli/T7 phage or HEK-293; conditions: @ 0.1 uM; read-out: CSF1R kinase binding activity, Percent (%) inhibition
Sequence (P07333 20-972): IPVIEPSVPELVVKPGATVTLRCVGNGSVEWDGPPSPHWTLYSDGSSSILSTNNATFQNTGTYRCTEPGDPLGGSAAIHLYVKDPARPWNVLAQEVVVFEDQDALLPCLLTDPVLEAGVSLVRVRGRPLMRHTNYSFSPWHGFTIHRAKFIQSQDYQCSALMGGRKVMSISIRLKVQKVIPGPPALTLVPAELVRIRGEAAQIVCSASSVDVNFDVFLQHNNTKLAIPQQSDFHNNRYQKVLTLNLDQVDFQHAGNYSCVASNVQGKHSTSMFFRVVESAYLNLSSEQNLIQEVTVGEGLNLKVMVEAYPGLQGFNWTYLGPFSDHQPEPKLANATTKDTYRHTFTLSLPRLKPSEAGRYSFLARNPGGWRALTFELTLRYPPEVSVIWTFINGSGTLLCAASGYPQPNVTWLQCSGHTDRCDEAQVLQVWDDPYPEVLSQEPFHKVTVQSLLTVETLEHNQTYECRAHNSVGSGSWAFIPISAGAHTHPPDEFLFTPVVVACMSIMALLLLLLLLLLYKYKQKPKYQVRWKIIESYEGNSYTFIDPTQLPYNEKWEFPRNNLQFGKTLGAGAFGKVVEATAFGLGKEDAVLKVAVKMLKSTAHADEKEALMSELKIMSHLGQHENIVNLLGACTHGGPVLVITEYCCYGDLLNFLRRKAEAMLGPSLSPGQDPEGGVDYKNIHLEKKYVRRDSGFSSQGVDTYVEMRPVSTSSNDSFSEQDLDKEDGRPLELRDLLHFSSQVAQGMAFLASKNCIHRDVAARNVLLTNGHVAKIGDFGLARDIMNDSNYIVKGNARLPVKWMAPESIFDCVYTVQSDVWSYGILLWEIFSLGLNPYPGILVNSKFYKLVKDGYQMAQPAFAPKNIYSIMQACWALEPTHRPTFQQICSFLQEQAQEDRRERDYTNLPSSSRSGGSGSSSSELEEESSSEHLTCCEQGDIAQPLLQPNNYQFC
measured-attribute: inhibition at 0.1 µM (%)
Please respond with the number in % and leave the unit unwritten.

# example entries with known answers
molecule=COc1cc2nccc(Oc3ccc(NC(=O)c4nn(CC(C)(F)F)cc4OCC(F)(F)F)nc3)c2cc1OC test_target="CSF1R (Homo sapiens, UniProt P07333)" measured_attribute="inhibition at 0.1 µM" measured=95
molecule=CNCCn1cc(OCC(F)(F)F)c(C(=O)Nc2ccc(Oc3ccnc4cc(OC)c(OC)cc34)cn2)n1 test_target="CSF1R (Homo sapiens, UniProt P07333)" measured_attribute="inhibition at 0.1 µM" measured=88

From here, focus on the item given below.
get_value(item= COc1cc2nccc(Oc3ccc(NC(=O)c4nn(C5CCN(C)C5)cc4OCC(F)(F)F)nn3)c2cc1OC (stereo not drawn) , readout=inhibition at 0.1 µM) returns 81

====

biological target: CSF1R (Homo sapiens, UniProt P07333); assay: Cellular CSF1R inhibition ELISA (p-CSF1R, M-CSF-induced) using THP-1 cells
measured-attribute: IC50

Below: 6 molecules and their reported IC50.
molecule="CCCn1cc(OCCC(F)(F)F)c(C(=O)Nc2ccc(Oc3ccnc4cc(OC)c(OC)cc34)cn2)n1 [Compound 31]" measured="< 500 nM"
molecule="COc1cc2nccc(Oc3ccc(NC(=O)c4nn(CCN(C)C)cc4OCC(F)(F)F)nc3)c2cc1OC [Compound 9]" measured="< 500 nM"
molecule="CNCCOc1cn(C2CC2)nc1C(=O)Nc1ccc(Oc2ccnc3cc(OC)c(OC)cc23)nn1 [Compound 160]" measured="≥ 1000 nM"
molecule="COc1cc2nccc(Oc3ccc(NC(=O)c4nn(C5CCCC5)cc4OCC(F)(F)F)cc3F)c2cc1OC [Compound 52]" measured="≥ 1000 nM"
molecule="CCCn1cc(OCC(F)(F)F)c(C(=O)Nc2ccc(Oc3ccnc4cc(OC)c(OC)cc34)nn2)n1 [Compound 32]" measured="< 500 nM"
molecule="COc1cc2nccc(Oc3ccc(NC(=O)c4nn(CCO)cc4OCC(F)(F)F)nc3)c2cc1OC [Compound 67]" measured="< 500 nM"

Entry COc1cc2nccc(Oc3ccc(NC(=O)c4nn(C5CCCC5)cc4OCC(F)(F)F)cc3)c2cc1OC [Compound 60] ; IC50 = 500 to 1000 nM

====

Listing of recorded Kd by entry.
biological target: Axl (Homo sapiens, UniProt P30530); assay: LanthaScreen Eu kinase binding assay for Axl; settings: read-out: Axl kinase binding activity (Kd)

chemical_string=COCCn1cc(OCC(F)(F)F)c(C(=O)Nc2ccc(Oc3ccnc4cc(OC)c(OC)cc34)cc2)n1 measured="< 0.1 µM"
chemical_string=CCCn1cc(NCC(F)(F)F)c(C(=O)Nc2ccc(Oc3ccnc4cc(OC)c(OC)cc34)cn2)n1 measured="< 0.1 µM"
chemical_string=COc1cc2nccc(Oc3ccc(NC(=O)c4nn(CCO)cc4OCC(F)(F)F)cc3F)c2cc1OC measured="< 0.1 µM"

For reference, reported Kd for `COc1cc2nccc(Oc3ccc(NC(=O)c4nn(CC(C)C)cc4OCC(F)(F)F)cn3)c2cc1OC` stands at < 0.1 µM

Record `COc1cc2nccc(Oc3ccc(NC(=O)c4nn(CCN)cc4OCC(F)(F)F)cc3)c2cc1OC` , field Kd: 0.1 to 0.5 µM
